Assay Method Text: Cytotoxicity against human MRC5 cells
Format: toxicity, cell-based
pIC50: −log10 of the molar value.
Property: pIC50

Task: Consider the molecule COC1=C(Cl)[C@](C)(O)c2c(oc(=O)c3c(O)cc(OC)cc23)C1=O and give its measured pIC50.
Result: 4.90 to 5.96

----------
Could you please report measured MIC for the items listed next?
Test system: Bacillus subtilis
Assay Method Text: Antibacterial activity against Bacillus subtilis ATCC 11562 by broth dilution colorimetric assay
Assay type: functional
Give bare numbers, in µg/mL.

| Smiles String | Target Or Test System | MIC, µg/mL |
| --- | --- | --- |
| COc1cc(O)c2c(=O)oc3c(O)c(OC)c(Cl)c(C)c3c2c1 | Bacillus subtilis | 50 |

Batch request: MIC per item, same order as input.
1. COC1=C(Cl)[C@](C)(O)c2c(oc(=O)c3c(O)cc(OC)cc23)C1=O
2. COc1cc(O)c2c(=O)oc3c(c2c1)[C@@](C)(O)C(Cl)=C(O)C3=O

Result:
50
100

Batch request: MIC per item, same order as input.
1. Cc1c(Cl)c(O)cc2oc(=O)c3c(O)cc(O)cc3c12
2. Cc1cc(O)cc2oc(=O)c3c(O)cc(O)cc3c12

Result:
1. 50
2. 50

Task: Consider the compound COc1cc(O)c2c(=O)oc3c(c2c1)[C@@](C)(O)C[C@@H](OC)[C@@]31C[C@@H](O)C(=O)O1 and give its measured MIC.
Result: 75

----------
Assay Method Text: Cytotoxicity against human MCF7 cells by MTT assay
Type: functional, cell-based
Could you please report measured IC50 for the items listed next?

The cases that follow already have their IC50 on record.
| Smiles String | IC50 |
| --- | --- |
| COC1=C[C@](C)(O)c2c(oc(=O)c3c(O)cc(OC)cc23)C1=O | > 50 µM |
| CC(=O)O[C@H]1C(=O)[C@@]2(C)[C@H]([C@H](OC(=O)c3ccccc3)[C@]3(O)C[C@H](OC(=O)[C@H](O)[C@@H](NC(=O)c4ccccc4)c4ccccc4)C(C)=C1C3(C)C)[C@]1(OC(C)=O)CO[C@@H]1C[C@@H]2O | 0.0006 µM |
| COc1cc(O)c2c(=O)oc3c(c2c1)[C@@](C)(O)C[C@@H](OC)[C@@]31C[C@@H](O)C(=O)O1 | > 50 µM |
| COc1cc(O)c2c(=O)oc3cc(O)cc(C)c3c2c1 | > 50 µM |
| COc1cc(O)c2c(=O)oc3cc(O)c(Cl)c(C)c3c2c1 | > 50 µM |

Task: Consider the compound COc1cc(O)c2c(=O)oc3c(c2c1)[C@@](C)(O)C(Cl)=C(O)C3=O and give its measured IC50.
Result: > 50 µM

----------
Test system: Agrobacterium tumefaciens
Assay Method Text: Antibacterial activity against Agrobacterium tumefaciens ATCC 11158 by broth dilution colorimetric assay
Type: functional
Property: MIC

The cases that follow already have their MIC on record.
| Smiles String | MIC |
| --- | --- |
| COC1=C(Cl)[C@](C)(O)c2c(oc(=O)c3c(O)cc(OC)cc23)C1=O | > 200 µg/mL |
| COC1=C(N)[C@](C)(O)c2c(oc(=O)c3c(O)cc(OC)cc23)C1=O | > 200 µg/mL |
| COC1=C[C@](C)(O)c2c(oc(=O)c3c(O)cc(OC)cc23)C1=O | > 200 µg/mL |

Attention now turns to another entry.
Task: Consider the compound COc1cc(O)c2c(=O)oc3c(c2c1)[C@@](C)(O)C(Cl)=C(O)C3=O and give its measured MIC.
Result: 100 µg/mL

----------
Test system: Bacillus subtilis
Assay Method Text: Antibacterial activity against Bacillus subtilis ATCC 11562 by broth dilution colorimetric assay
Assay type: functional
Property: MIC (µg/mL)
Numbers only, in µg/mL.

Task: Look up MIC with Bacillus subtilis for this molecule: CN[C@@H]1[C@H](O[C@H]2[C@H](O[C@H]3[C@H](O)[C@@H](O)[C@H](N=C(N)N)[C@@H](O)[C@@H]3N=C(N)N)O[C@@H](C)[C@]2(O)C=O)O[C@@H](CO)[C@H](O)[C@H]1O.CN[C@@H]1[C@H](O[C@H]2[C@H](O[C@H]3[C@H](O)[C@@H](O)[C@H](N=C(N)N)[C@@H](O)[C@@H]3N=C(N)N)O[C@@H](C)[C@]2(O)C=O)O[C@@H](CO)[C@H](O)[C@H]1O.O=S(=O)(O)O.O=S(=O)(O)O.O=S(=O)(O)O [STREPTOMYCIN SULFATE]
Result: 5

----------
Assay Method Text: Antibacterial activity against Ralstonia solanacearum ATCC 11696 by broth dilution colorimetric assay
Assay type: functional, Ralstonia solanacearum K60-1
Property: IC50 (µg/mL)
Answers are plain numbers, in µg/mL.

The cases that follow already have their IC50 on record.
| Compound | IC50 (µg/mL) |
| --- | --- |
| CN[C@@H]1[C@H](O[C@H]2[C@H](O[C@H]3[C@H](O)[C@@H](O)[C@H](N=C(N)N)[C@@H](O)[C@@H]3N=C(N)N)O[C@@H](C)[C@]2(O)C=O)O[C@@H](CO)[C@H](O)[C@H]1O.CN[C@@H]1[C@H](O[C@H]2[C@H](O[C@H]3[C@H](O)[C@@H](O)[C@H](N=C(N)N)[C@@H](O)[C@@H]3N=C(N)N)O[C@@H](C)[C@]2(O)C=O)O[C@@H](CO)[C@H](O)[C@H]1O.O=S(=O)(O)O.O=S(=O)(O)O.O=S(=O)(O)O [STREPTOMYCIN SULFATE] | 1.2 |
| COc1cc(O)c2c(=O)oc3c(O)c(OC)c(Cl)c(C)c3c2c1 | 24.2 |
| COc1cc(O)c2c(=O)oc3c(c2c1)[C@@](C)(O)C(Cl)=C(O)C3=O | 36.5 |
| Cc1c(Cl)c(O)cc2oc(=O)c3c(O)cc(O)cc3c12 | 12.4 |

Attention now turns to another entry.
Task: Consider the compound Cc1cc(O)cc2oc(=O)c3c(O)cc(O)cc3c12 [ALTERNARIOL] and give its measured IC50.
Result: 5.5
